Target: Human adrenergic α2B receptor (Homo sapiens)
Sequence (P18089 1-450): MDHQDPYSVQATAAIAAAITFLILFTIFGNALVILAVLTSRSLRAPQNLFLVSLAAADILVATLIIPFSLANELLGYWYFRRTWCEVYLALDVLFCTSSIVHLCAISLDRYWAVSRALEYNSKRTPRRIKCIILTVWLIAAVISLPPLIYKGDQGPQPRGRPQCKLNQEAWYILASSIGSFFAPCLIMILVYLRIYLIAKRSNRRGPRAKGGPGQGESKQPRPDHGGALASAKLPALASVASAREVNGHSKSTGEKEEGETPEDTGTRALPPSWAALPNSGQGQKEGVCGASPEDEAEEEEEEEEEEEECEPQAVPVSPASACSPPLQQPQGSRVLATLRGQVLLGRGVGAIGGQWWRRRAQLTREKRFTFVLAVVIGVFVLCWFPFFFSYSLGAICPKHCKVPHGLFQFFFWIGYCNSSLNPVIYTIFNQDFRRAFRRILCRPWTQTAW
Experiment: Radioligand binding, adrenergic α2B (Protocol Group B)
Parameters: purchased Milipore (Millipore)
Details: 30 nM compound; Protocol Group B; 0.03 µM
Experimental: To evaluate the activity of compounds in radioligand binding assays, Human adrenergic α2B receptor obtained from recombinant cell membrane from Milipore. Binding experiments were carried out in Tris-HCl buffer (50 mM Tris-HCl buffer, pH 7.4, 5 mM Mgcl2, 1 mM Cacl2, 0.2% BSA) as recommended by Milipore. […] Non-specific binding was estimated in the presence of 10 μM Rauwolscine. […] Compounds were screened at various concentrations, using 1% DMSO as vehicle. […]
Examples of molecules with documented Percentage inhibition of ligand binding, Adrenergic α2B (30 nM) follow.
experimental-endpoint: Percentage inhibition of ligand binding, Adrenergic α2B (30 nM) (%)

molecule	experimental-system	quantitative-readout
CC(O)(Cn1c2c(c3cc(F)ccc31)C1CCCN1CC2)c1cccnc1 (stereo not shown) [51a]	Human adrenergic α2B receptor (Homo sapiens)	93
Cc1cc(F)c2c(c1)c1c(n2CC(C)(O)c2ccncc2)CC2CCCN2C1 (single isomer, unassigned) [62d]	Human adrenergic α2B receptor (Homo sapiens)	57
Cc1cc(F)cc2c3c(n(CC(O)c4ccncc4)c12)CCN1CCCC31 (single isomer, unassigned) [136c]	Human adrenergic α2B receptor (Homo sapiens)	9
Cc1cc(Cl)c2c(c1)c1c(n2CC(O)c2ccncc2)CCN2CCCC12 (single isomer, unassigned) [142b]	Human adrenergic α2B receptor (Homo sapiens)	100
Cc1cc(F)c2c(c1)c1c(n2CC(C)(O)c2cccnc2)CCN2CCCC12 (stereo not shown) [Compound No. 79a]	Human adrenergic α2B receptor (Homo sapiens)	96
Cc1cc(C)c2c(c1)c1c(n2CC(C)(O)c2ccncc2)CCN2CCCC12 (single isomer, unassigned) [19b]	Human adrenergic α2B receptor (Homo sapiens)	97
CC(O)(Cn1c2c(c3cc(Cl)cc(F)c31)CN1CCCC1C2)c1cccnc1 (single isomer, unassigned) [63d]	Human adrenergic α2B receptor (Homo sapiens)	5

* * *

Biological target: Human adrenergic α2B receptor (Homo sapiens, UniProt P18089)
Sequence (P18089 1-450): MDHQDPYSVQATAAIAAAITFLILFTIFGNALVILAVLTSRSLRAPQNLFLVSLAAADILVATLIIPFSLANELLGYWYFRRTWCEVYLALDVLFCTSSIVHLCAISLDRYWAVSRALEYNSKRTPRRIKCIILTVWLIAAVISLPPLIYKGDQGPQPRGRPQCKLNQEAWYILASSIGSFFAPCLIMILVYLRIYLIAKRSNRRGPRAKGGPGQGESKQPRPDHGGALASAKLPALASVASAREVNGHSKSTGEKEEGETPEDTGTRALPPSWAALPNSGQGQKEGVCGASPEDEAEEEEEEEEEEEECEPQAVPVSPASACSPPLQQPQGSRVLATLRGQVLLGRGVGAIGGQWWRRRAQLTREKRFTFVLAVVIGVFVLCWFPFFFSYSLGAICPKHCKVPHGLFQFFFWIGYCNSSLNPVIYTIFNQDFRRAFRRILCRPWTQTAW
Test: Radioligand binding, adrenergic α2B (Protocol Group B)
Set-up: purchased Milipore (Millipore)
Conditions: 0.1 μM compound; Protocol Group B; 0.1 µM
experimental-endpoint: Percentage inhibition of ligand binding, Adrenergic α2B (0.1 μM) (%)

compound	quantitative-readout
Cc1ccc2c(c1)c1c(n2CC(C)(O)c2ccncc2)CCN2CCCC12 (single isomer, unassigned) [13d]	76
Cc1ccc2c(c1)c1c(n2CC(C)(O)c2cccnc2)CC(CO)N(C)C1 (single isomer, unassigned) [15a]	68
Cc1cc(C)c2c(c1)c1c(n2CC(C)(O)c2cccnc2)CCN2CCCC12 (single isomer, unassigned) [44b]	100
CCOC(Cn1c2c(c3cc(C)ccc31)CN(C)CC2)c1ccncc1 (single isomer, unassigned) [43b]	98
